Experimental protocol: DUSP6 inhibitors restoring Erk phosphorylation by chemical complementation, primary imaging in DUSP6-transfected HeLa (AID 609)
Test parameters: HeLa MKP-3 transfected, phospho-Erk imaging KS statistic; measured here: nuclear pErk red intensity z-score; at 10 µM; stronger effect = higher value; cells stimulated with TPA for 15 min
Could you label it fulfilled if measured z-score is 0.2 or higher, and not fulfilled otherwise?

Compound	Classification
CN1CCCN=C1COC(=O)C(O)(c1ccccc1)C1CCCCC1 (stereo unspecified)	fulfilled
Cc1occc(=O)c1OC(=O)Nc1ccccc1	not fulfilled

Task item: Answer whether z-score of C=CCc1cccc(/C=N/c2ncn[nH]2)c1O is greater than or equal to 0.2.
Reply: not fulfilled

Task item: Answer whether z-score of Cc1ccc(C)c(OCc2nnc(NC(=O)c3ccco3)s2)c1 is greater than or equal to 0.2.
Reply: not fulfilled

Task item: Answer whether z-score of Fc1ccc2[nH]c3c(N4CCN(c5ccccc5)CC4)ncnc3c2c1 is greater than or equal to 0.2.
Reply: fulfilled

Task item: Answer whether z-score of CC(=O)OCC(=O)[C@@]12OC3(CCCC3)O[C@@H]1C[C@H]1[C@@H]3CCC4=CC(=O)C=C[C@]4(C)[C@@]3(F)[C@@H](O)C[C@@]12C is greater than or equal to 0.2.
Reply: fulfilled

Task item: Answer whether z-score of COc1ccc(-n2c(SCC(N)=O)nc3sc4c(c3c2=O)CCN(C)C4)cc1 is greater than or equal to 0.2.
Reply: not fulfilled

Task item: Answer whether z-score of CCCc1cc(-n2ccnc2C)n2c(nc3ccccc32)c1C#N is greater than or equal to 0.2.
Reply: fulfilled

Task item: Answer whether z-score of COc1ccc(-c2cc3nc4n(c(=O)c3s2)CCOC4)cc1 is greater than or equal to 0.2.
Reply: not fulfilled

Task item: Answer whether z-score of Nn1c(SCC(=O)Nc2ccc3c(c2)OCCO3)nnc1C(F)(F)F is greater than or equal to 0.2.
Reply: not fulfilled

Task item: Answer whether z-score of O=C(NC1(C(F)(F)F)C(=O)Nc2c1c(=O)[nH]c(=O)n2-c1ccccc1)c1cccnc1 (stereo unspecified) is greater than or equal to 0.2.
Reply: fulfilled
